# TEST_SYSTEM: Recombinant human PARP1 protein (Homo sapiens)
# Sequence (P09874 whole entry): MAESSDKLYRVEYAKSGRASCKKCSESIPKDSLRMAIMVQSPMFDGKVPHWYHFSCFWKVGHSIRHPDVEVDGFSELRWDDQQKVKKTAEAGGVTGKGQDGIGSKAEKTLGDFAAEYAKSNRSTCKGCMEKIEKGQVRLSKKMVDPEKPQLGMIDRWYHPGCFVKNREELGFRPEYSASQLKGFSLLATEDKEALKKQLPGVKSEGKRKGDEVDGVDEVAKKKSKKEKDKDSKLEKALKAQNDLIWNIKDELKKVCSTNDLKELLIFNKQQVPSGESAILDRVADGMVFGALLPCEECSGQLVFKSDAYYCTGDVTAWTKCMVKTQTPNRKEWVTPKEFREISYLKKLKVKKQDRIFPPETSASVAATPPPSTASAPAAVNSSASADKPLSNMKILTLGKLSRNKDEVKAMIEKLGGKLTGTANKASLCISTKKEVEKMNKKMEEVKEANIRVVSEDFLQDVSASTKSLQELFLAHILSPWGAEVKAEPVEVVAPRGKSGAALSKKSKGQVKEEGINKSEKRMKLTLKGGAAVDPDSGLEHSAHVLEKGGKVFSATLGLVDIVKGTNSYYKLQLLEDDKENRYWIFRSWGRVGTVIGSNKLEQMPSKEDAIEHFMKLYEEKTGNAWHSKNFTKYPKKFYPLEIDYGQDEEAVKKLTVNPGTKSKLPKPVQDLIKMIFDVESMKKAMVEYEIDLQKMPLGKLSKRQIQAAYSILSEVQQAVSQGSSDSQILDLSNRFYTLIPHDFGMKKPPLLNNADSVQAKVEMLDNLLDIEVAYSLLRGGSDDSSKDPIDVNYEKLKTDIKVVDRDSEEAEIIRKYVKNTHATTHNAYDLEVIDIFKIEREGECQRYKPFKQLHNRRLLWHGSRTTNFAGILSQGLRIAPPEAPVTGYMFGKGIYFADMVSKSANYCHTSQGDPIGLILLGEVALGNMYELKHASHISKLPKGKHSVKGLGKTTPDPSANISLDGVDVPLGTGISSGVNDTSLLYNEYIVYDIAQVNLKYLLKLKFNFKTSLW
# TEST_SUMMARY: PARP1 inhibitory activity (histone substrate, chemiluminescent ELISA)
# Type: biochemical
# SETTINGS: histone substrate; 500 µM NAD+ added to the substrate solution; read-out: PARP1 IC50
PARAMETER_MEASURED: IC50 (nM)
The answer is to be given in nM; state only the numeric part.

Some solved cases for reference:
>>> print(df.to_string())
                                   compound                               test_system  parameter_measured  result_unit  measured_number
0  CNC(=O)c1ccc(N2CCN(Cc3cc4c5c(cnn5c3)N(C(C)C)C(=O)N4)CC2)c(C)n1 [Compound 56]  Recombinant human PARP1 protein (Homo sapiens)                IC50           nM             3.34
1  CNC(=O)c1ccc(N2CCN(Cc3cc4cnn5c4c(c3F)NC(=O)C53CC3)CC2)c(Cl)n1 [Compound 41]  Recombinant human PARP1 protein (Homo sapiens)                IC50           nM              0.1
2  CC[C@H]1C(=O)Nc2cc(CN3CCN(c4ccc(C(=O)NC)nc4F)CC3)cc3cnn1c23 [Compound 5-1]  Recombinant human PARP1 protein (Homo sapiens)                IC50           nM             1.35
3  CNC(=O)c1ccc(N2CCN(Cc3cc4c5c(c3)ncn5C(C3CCC3)C(=O)N4)CC2)c(Cl)n1 (centres unmarked) [Compound 81]  Recombinant human PARP1 protein (Homo sapiens)                IC50           nM              4.2
4  CNC(=O)c1ccc(N2CCN(Cc3cc4c5c(cnn5c3)N(C3CC3)C(=O)N4)CC2)c(C)n1 [Compound 54]  Recombinant human PARP1 protein (Homo sapiens)                IC50           nM              0.4
5  CNC(=O)c1ccc(N2CCN(Cc3cc4c5c(cnn5c3)N(C)C(=O)N4)CC2)c(C)n1 [Compound 19]  Recombinant human PARP1 protein (Homo sapiens)                IC50           nM             1.42
6  CNC(=O)c1ccc(N2CCN(Cc3cc4c5c(cnn5CC(=O)N4)c3)CC2)c(Cl)n1 [Compound 26]  Recombinant human PARP1 protein (Homo sapiens)                IC50           nM             0.28

Could you now look at the following compound, please?
Incoming: Which IC50 is reported for this compound? CNC(=O)c1ccc(N2CCN(Cc3cc4c5c(c3)ncn5[C@@H](C3CC3)C(=O)N4)CC2)c(Cl)n1 [Compound 47-1]
Outgoing: 0.68

Reference source: patent EP4759815A1
